Where do these numbers come from? They come from patent US8309558B2.

Biological target: HCV NS5B RdRp genotype 1b (Hepatitis C virus genotype 1b, UniProt Q9WMX2)
Construct: The protein was expressed with an 18 amino acid C-terminal truncation to enhance the solubility; made in house; host or cells: E. coli BL21(DE3), pET21a vector
Sequence (Q9WMX2 2420-2992): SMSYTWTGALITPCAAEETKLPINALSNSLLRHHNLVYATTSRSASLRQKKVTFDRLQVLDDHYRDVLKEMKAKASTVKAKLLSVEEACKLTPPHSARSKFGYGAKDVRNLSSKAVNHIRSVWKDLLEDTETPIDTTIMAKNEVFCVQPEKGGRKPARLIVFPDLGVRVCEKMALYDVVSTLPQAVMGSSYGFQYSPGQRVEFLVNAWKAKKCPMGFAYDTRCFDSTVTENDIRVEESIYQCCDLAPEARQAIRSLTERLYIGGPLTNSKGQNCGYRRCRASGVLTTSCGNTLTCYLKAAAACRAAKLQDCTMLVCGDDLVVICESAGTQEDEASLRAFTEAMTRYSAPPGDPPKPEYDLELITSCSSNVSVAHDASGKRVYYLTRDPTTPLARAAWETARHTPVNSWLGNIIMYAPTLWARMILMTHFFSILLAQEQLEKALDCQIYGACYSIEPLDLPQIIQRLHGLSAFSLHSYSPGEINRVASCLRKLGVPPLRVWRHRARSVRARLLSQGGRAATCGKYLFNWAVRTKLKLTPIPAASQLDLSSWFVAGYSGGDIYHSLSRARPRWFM
Assay: Standard HCV NS5B RdRp enzyme assay
Type: biochemical
Details: Table 1b; HCV NS5B RdRp genotype 1b; read-out: IC50
pIC50: −log10 of the molar value.
MEASURE_NAME: pIC50

Worked cases, pIC50 given:
[[record]]
compound = "CNC(=O)c1c(-c2ccc(F)cc2)oc2ccc(-c3cc(C(=O)NC4(c5ccncc5)CC4)ccc3C)cc12 [drawing 501]"
system_name = "HCV NS5B RdRp genotype 1b (Hepatitis C virus genotype 1b, UniProt Q9WMX2)"
measure_name = "pIC50"
result = "> 6.60"

[[record]]
compound = "CNC(=O)c1c(-c2ccc(F)cc2)oc2ccc(-c3cc(C(=O)NC4(c5ccccn5)CC4)ccc3OC)cc12"
system_name = "HCV NS5B RdRp genotype 1b (Hepatitis C virus genotype 1b, UniProt Q9WMX2)"
measure_name = "pIC50"
result = "> 6.60"

[[record]]
compound = "CNC(=O)c1c(-c2ccc(F)cc2)oc2ccc(-c3cc(C(=O)O)c(C)cc3C)c(F)c12"
system_name = "HCV NS5B RdRp genotype 1b (Hepatitis C virus genotype 1b, UniProt Q9WMX2)"
measure_name = "pIC50"
result = "5.00 to 6.00"


input: For CNC(=O)c1c(-c2ccc(F)cc2)oc2ccc(-c3cc(C(=O)NCC(C)C)ccc3OC(F)F)cc12 , write its pIC50.
output: > 6.60

input: Entry CNC(=O)c1c(-c2ccc(F)cc2)oc2ccc(-c3cc(NC(=O)OC(C)(C)C)cc(C(=O)NCC(C)C)c3)cc12 needs its pIC50 filled in; supply it.
output: 6.00 to 6.60

input: Give pIC50 for CNC(=O)c1c(-c2ccc(F)cc2)oc2ccc(-c3c(C)ccc(C(=O)O)c3OC)cc12
output: 5.00 to 6.00

input: Hello, please tell me recorded pIC50 for this one: CNC(=O)c1c(-c2ccc(F)cc2)oc2ccc(-c3ccc(-c4cncc5ccccc45)c(C(=O)NCC(C)C)c3)cc12
output: 6.00 to 6.60

input: State its pIC50: CCC(CC)(NC(=O)c1ccc(Cl)c(-c2ccc3oc(-c4ccc(F)cc4)c(C(=O)NC)c3c2)c1)c1ccccc1
output: > 6.60

input: Check the records and state pIC50 for CNC(=O)c1c(-c2ccc(F)cc2)oc2ccc(-c3ccc(O)c(C(=O)NCC(C)C)c3)cc12
output: 5.00 to 6.00

input: Fill in reported pIC50 for this entry: CNC(=O)c1c(-c2ccc(F)cc2)oc2ccc(-c3cc(C(=O)NCC(C)C)ccc3OCCC3CCCCN3)cc12 (stereo not shown)
output: > 6.60

input: Note pIC50 for the compound shown: CNC(=O)c1c(-c2ccc(F)cc2)oc2ccc(-c3ccc(-c4ccccc4OC)c(C(=O)NCC(C)C)c3)cc12
output: > 6.60

input: Give a short answer stating reported pIC50 for CNC(=O)c1c(-c2ccc(F)cc2)oc2ccc(-c3cccc(C(=O)NC(C)(C)C(=O)Nc4cc(C)on4)c3)cc12 .
output: > 6.60
